B1: glmS ribozyme (parent)
chain: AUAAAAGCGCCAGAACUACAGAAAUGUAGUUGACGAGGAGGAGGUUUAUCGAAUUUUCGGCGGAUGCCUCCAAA

# Variants of: B1
# experimentalProtocol: KM; higher = weaker cofactor use; RNA array
# experimentalSetup: with glucosamine-6-phosphate
# KM >= 2000 µM gives met, anything below gives not met

Please review the following examples before continuing.
mutationAnnotation	assignedCategory
A12G U47C	met
A15U C16U	not met
U47C U65A	not met
A12G A39C	met
C16U G66A	not met
C10U U47A	not met

*Q* For this variant, is measured KM 2000 µM or higher? A14U A42U
*A* not met

*Q* For this variant, is measured KM 2000 µM or higher? G37A G66C
*A* met

*Q* For this variant, is measured KM 2000 µM or higher? G13C C16U
*A* met

*Q* For this variant, is measured KM 2000 µM or higher? A6U G40U
*A* met

*Q* For this variant, is measured KM 2000 µM or higher? G44A G66U
*A* met

*Q* For this variant, is measured KM 2000 µM or higher? U30G C70G
*A* not met

*Q* For this variant, is measured KM 2000 µM or higher? A15G A48C
*A* met

*Q* For this variant, is measured KM 2000 µM or higher? A14U G32A
*A* met

*Q* For this variant, is measured KM 2000 µM or higher? U31C A39U
*A* met

*Q* For this variant, is measured KM 2000 µM or higher? G29U C58G
*A* not met
